protocolDescription: self-splicing fitness, log relative to wild type (ln ratio); higher = more splicing; Tetrahymena group I intron in knt gene, E. coli kanamycin selection, DiMSum; sequences stand for … in CUCUCU…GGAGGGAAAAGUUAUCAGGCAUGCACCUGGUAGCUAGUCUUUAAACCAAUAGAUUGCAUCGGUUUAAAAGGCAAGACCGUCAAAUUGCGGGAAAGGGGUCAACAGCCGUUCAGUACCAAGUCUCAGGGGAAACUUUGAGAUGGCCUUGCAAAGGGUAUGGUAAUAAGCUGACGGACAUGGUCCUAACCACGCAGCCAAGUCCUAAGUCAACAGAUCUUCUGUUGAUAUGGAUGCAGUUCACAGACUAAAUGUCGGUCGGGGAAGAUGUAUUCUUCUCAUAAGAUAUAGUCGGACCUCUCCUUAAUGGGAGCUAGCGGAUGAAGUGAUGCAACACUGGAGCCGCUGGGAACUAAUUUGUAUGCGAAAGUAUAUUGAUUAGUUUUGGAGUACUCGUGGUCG;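 note: selection with 25 µg/mL kanamycin versus none on LB agar overnight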
recordedConditions: 37 °C
Reported self-splicing fitness (ln) values are given for each entry in this list.
When you answer, write just the number.

# seqText, self-splicing fitness (ln)
rows = [
    ("AGACAGCAAUAUUACGUCUG", -0.662),
    ("GUUGAGCAAUAUUACGUCGG", -1.61),
    ("GUUGAGCAAUAUUACGGAUU", -1.56),
]

Given the entry `UAACAGCAAUAUUACGAGGC` , report its measured self-splicing fitness (ln). -1.97

One more sequence: `AUAAAGCAAUAUUACGAAGA` -1.17

One more sequence: `ACCAAGCAAUAUUACGACGG` 0.495

One more sequence: `AAGAAGCAAUAUUACGUCCC` 0.89

---

protocolDescription: self-splicing fitness, log relative to wild type (ln ratio); higher = more splicing; Tetrahymena group I intron in knt gene, E. coli kanamycin selection, DiMSum; sequences stand for … in CUCUCU…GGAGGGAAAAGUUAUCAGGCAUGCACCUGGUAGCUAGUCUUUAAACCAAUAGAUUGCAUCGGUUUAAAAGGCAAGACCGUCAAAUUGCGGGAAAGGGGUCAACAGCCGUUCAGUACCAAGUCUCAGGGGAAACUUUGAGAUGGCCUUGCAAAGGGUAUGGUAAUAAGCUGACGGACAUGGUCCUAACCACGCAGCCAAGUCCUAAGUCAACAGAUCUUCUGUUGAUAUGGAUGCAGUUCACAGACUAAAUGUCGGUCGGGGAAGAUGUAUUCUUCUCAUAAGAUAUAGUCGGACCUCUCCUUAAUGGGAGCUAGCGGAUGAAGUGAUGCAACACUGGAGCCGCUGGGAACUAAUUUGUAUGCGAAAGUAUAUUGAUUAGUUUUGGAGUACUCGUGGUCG
recordedConditions: 37 °C
Short version: self-splicing fitness (ln) at least -2 is condition met, less is condition not met.

# seqText, group
measured = [
    ("CUGCAGCAAUAUUACGAUUU", "condition met"),
    ("UUGUAGCAAUAUUACGCUGA", "condition met"),
]

Evaluate `GGUUAGCAAUAUUACGCGAG` : self-splicing fitness (ln) at minimum -2? condition met

One more sequence: `ACCCAGCAAUAUUACGGCAG` condition not met

One more sequence: `CCCCAGCAAUAUUACGAGCA` condition not met

One more sequence: `AGUAAGCAAUAUUACGCAGG` condition met

One more sequence: `GAUCAGCAAUAUUACGUGAA` condition met
